Assay: in vitro
Details: human, hela cells, % viability

| compound | viability at 28.5 h, 10 µM, % |
| --- | --- |
| COC(=O)[C@H](NC(=O)C1CCN(C(=O)OCc2ccccc2)CC1)c1ccccc1 | 88.1 |
| Nc1c(-c2cccc3cccnc23)cnc2ncccc12 | 108 |
| Cc1ccc2c(c1)nc(CNC(=O)NC1CCCc3cn[nH]c31)n2C (centres unmarked) | 77.5 |
| CO[C@@H]1CO[C@H]2[C@@H]1OC[C@@H]2Nc1nccc(-c2cccc(C#N)c2)n1 | 79.8 |
| CCN(CC)CCOC(=O)c1oc2c3c(ccc2c1C)OCCO3 [CBK008676C] | 115 |

---

Test: in vitro
Conditions: human, hela cells, % viability
Lab note: anything with viability at 28.5 h, 10 µM below 90% is marked yes (1); values at 90% or higher are marked no (0).

| compound | assigned.class |
| --- | --- |
| O=C(O)c1cc(C=Cc2cn(Cc3ccccc3)nc2-c2cccnc2)nc2ccccc12 | no (0) |
| COc1cc(-c2ccc3c(c2)COC2(CCCNC2)O3)cc(OC)c1OC (stereo not shown) | no (0) |
| O=C(NCc1cccc(C(F)(F)F)c1)N1CCN(c2cc(C(F)(F)F)ccn2)CC1 | no (0) |
| Cc1csc2ncc(C(=O)Nc3ccccc3C(F)(F)F)c(=O)n12 | yes (1) |
| Nc1nc2ccccc2cc1-c1cccs1 | no (0) |

---

Assay: in vitro
Details: human, hela cells, % viability
Recorded viability at 28.5 h, 10 µM for the following molecules

| molecule | viability at 28.5 h, 10 µM, % |
| --- | --- |
| Oc1ccc(/C=C/c2nc(-c3ccccc3O)n(-c3ccccc3)n2)cc1 [CBK265289] | 74.4 |
| CC(C)(C)NCC(O)COc1c(F)cc(Br)cc1F (stereo not drawn) [CBK020879C] | 107 |
| c1ccc(C(=NCCN=C(c2ccccc2)c2ccccc2)c2ccccc2)cc1 [CBK262065] | 113 |
| Cc1nn(C)c(N2CCNCC2)c1NC(=O)c1ccccc1 [CBK050257T] | 99 |
| O=C(NC(c1ccc2c(c1)CCO2)[C@H]1C[C@@H](O)C1)c1c[nH]c(=O)c(Cl)c1 (stereo partly drawn) [CBK306634] | 95 |
| CCc1nc2ccc(C(=O)N3CCN(S(=O)(=O)CC)CC3)cn2c1N(C)CC [CBK145520] | 85.1 |
| O=[N+]([O-])c1ccc(CN2CCC(N3CCN(CCO)CC3)CC2)cc1 [CBK264621G] | 92.6 |
| O=c1cc(CN2CCC[C@@H]2CN2CCCC2)[nH]c(=O)[nH]1 [CBK149108] | 92.2 |
| COc1cccc(C(=O)N2CCC(Cc3ccc(-c4cccc(C)c4)cc3)(C(N)=O)CC2)c1 [CBK285779] | 115 |

---

Test: in vitro
Details: human, hela cells, % viability

| compound | viability at 28.5 h, 10 µM / % |
| --- | --- |
| NC(=O)C1CCN(CC(=O)Nc2ccc([N+](=O)[O-])cc2C(=O)c2ccccc2)CC1 | 89.3 |
| CC(NC(=O)c1cnc2n(c1=O)CCS2)c1ccccc1 (stereo not drawn) | 103 |
| CN1C(=O)COc2ccccc2CCCC[C@@H]2[C@H]1CCCN2C(=O)CCCn1cncn1 | 95.3 |
| COc1ccc(OCCNC(=O)c2ccc(-c3ccccc3C)nc2N2CCN(C(=O)c3ccco3)CC2)cc1 | 85.6 |
| Cn1c(=O)c2c(ncn2CC(=O)Nc2cccc(Br)c2)n(C)c1=O | 90.7 |
| FC(F)(F)c1cc(-c2cn3ccnc3c(NC3CCOCC3)n2)cc(C(F)(F)F)c1 | 107 |
| O=C(O)C(O)C(O)C(O)CO (stereo not drawn) [CBK278306G] | 89.3 |
| O=[N+]([O-])c1cccc(-c2ccc(-c3nn4c(Cc5ccccc5)nnc4s3)o2)c1 | 86.4 |
| Nc1ncc(-c2ccc(CN3CCOCC3)cc2)nc1-c1ccc(O)cc1 | 93.9 |

---

Assay: in vitro
Conditions: human, hela cells, % viability
// reported viability at 28.5 h, 10 µM for each item listed

| molecule | viability at 28.5 h, 10 µM (%) |
| --- | --- |
| OC12CCCCC1CN(CC1=Cc3ccccc3OC1)CC2 (centres unmarked) | 86.3 |
| COC(=O)c1cc(S(=O)(=O)NC2CCCc3ccccc32)cn1C (centres unmarked) | 98.4 |
| CCc1nc2sc(C(N)=O)c(N)c2c2c1CCCC2 | 101 |
| O=C1CCC(=O)N1CCOc1nccnc1OC1CCN(CCc2c[nH]c3ccccc23)CC1 | 94.6 |
| CC(=O)[C@H]1C[C@@H](CC(=O)NCc2csc(-c3ccccc3)n2)C1(C)C | 109 |
| Cc1cc(NC(=O)C2CCN(C(=O)c3c(F)cccc3F)CC2)no1 | 95.9 |
| CCC1C(=O)NCCN1C(=O)c1ccc2c(c1)ncn2C (centres unmarked) | 82.4 |
| COc1cc(-n2cnc3cc(-c4ccc(Cl)cc4)sc3c2=O)ccc1OCCN1CCCC1 [CBK089844C] | 40.7 |
| Cc1noc(C)c1S(=O)(=O)Nc1cccc(C(=O)N2CCN(C)CC2)c1 | 101 |
| COc1cc(Nc2cncc(-c3cccc(F)c3)n2)cc(OC)c1OC | 93 |
| COc1ccc(C(C)C)cc1-c1ccc(NS(C)(=O)=O)c2ccccc12 | 97.8 |
| OCc1cccc(-c2nccnc2NCc2ccncc2)c1 | 105 |
| CC(=O)Nc1ccc(-c2csc(N3CCN(C)CC3)n2)cc1 | 93.6 |
| CC(C)NC(=O)CN1CCN(Cc2nc(-c3cccc(Cl)c3)no2)CC1 | 100 |
| O=C(Nc1cccc(C(F)(F)F)c1)N[C@H]1CO[C@H]2[C@@H]1OC[C@H]2O | 102 |
| Cc1nn(CC(=O)N2C(C)CCCC2C)c(=O)c2cc3occc3n12 (centres unmarked) | 80.8 |
| O=C(O)CCC(=O)N1C[C@@H]2C[C@H](C1)c1ccc(-c3ccc4ccccc4c3)c(=O)n1C2 | 107 |
| N#CCCSc1ccn(C2CC(O)C(CO)O2)c(=O)n1 (centres unmarked) | 97.9 |
| Cc1noc(C)c1NC(=O)c1c(C)noc1C | 96.4 |
| Cc1ccc(C(=O)Nc2ccc(S(=O)(=O)N3CCCC3)cc2)cc1S(=O)(=O)Nc1ccccc1 | 47.4 |
| O=C(NC1CC1)[C@H]1CN2CCC1C[C@@H]2Cn1cc(C2(O)CCCC2)nn1 (some centres unmarked) | 82.1 |
| O=C(c1cccnc1)N1CCN(S(=O)(=O)c2ccc([N+](=O)[O-])cc2)CC1 | 92.5 |
| COc1ccc(OC)c(-n2c(S)nnc2Cn2c(-c3ccccn3)nc3ccccc32)c1 | 93.5 |
| Cc1nnc(SCC(=O)c2ccccc2)[nH]1 | 99.5 |
| Cc1cc(C)cc(C(O)CNC2CCN(Cc3cscn3)CC2)c1 (centres unmarked) | 94.4 |
| CCOC(=O)N1CCC(NC(=O)N2CCC(C(=O)O)CC2)CC1 | 95.2 |
| CN1CC(c2ccccc2)C2(CCNCC2)C1 (centres unmarked) | 105 |
| O=C(Cn1c[n+]([N-][N+](=O)[O-])cn1)Nc1ncc(Br)cc1Br | 90.9 |
| Cc1ccccc1-c1ccccc1CC1(C(N)=O)CCN(C(=O)Cc2ccccc2)CC1 | 106 |
| O=C(NCCNC(=O)c1ccccn1)c1ccccn1 | 101 |
| COc1ccc2cc(C(=O)N3CCc4[nH]c(=O)c(C#N)cc4C3)[nH]c2c1 | 87.8 |
| CC(=O)Oc1cc2c(c(OC(C)=O)n1)C(C)NC2=O (centres unmarked) | 94.9 |
| O=C(CCn1c(-c2ccccc2)c(-c2ccccc2)c2ccccc21)N/N=C/c1cccc(O)c1 | 52.1 |
| O=C(NC(=S)Nc1ccc(N2CCN(Cc3ccccc3F)CC2)cc1)c1ccco1 | 92.6 |
| Cc1cccc(CN(CC(=O)Nc2ccc3c(c2)OCCO3)S(=O)(=O)c2ccc(Cl)cc2)c1 | 91.9 |
| Cc1cc(CNC(=O)N(C)C2CCN(C)C2)no1 (centres unmarked) | 103 |
| COc1ccccc1Nc1nc(C)cc(C)c1C(N)=O | 82.7 |
| Cc1ccc(C(CC(=O)O)NC(=O)c2ccc(C)c(S(=O)(=O)N3CCCCC3)c2)cc1 (centres unmarked) | 82.7 |

---

Assay: in vitro
Conditions: human, hela cells, % viability, bulk resorufin, single well

| compound | units.label | viability at 28.5 h, 10 µM |
| --- | --- | --- |
| O=C1NC(=S)N(c2ccccc2)C(=O)/C1=C\c1ccc(OCc2ccccc2)c(C(=O)O)c1 [CBK264265] | % | 99.1 |
| O=C(O)c1ccccc1C(=O)N1CCC2(CC1)OCc1cc(F)ccc1O2 [CBK060863] | % | 109 |
| Cc1ccc(Cn2nc(C(=O)Nc3ccccn3)c3ccccc32)cc1 [CBK047839] | % | 105 |
| Cc1cccc(N2C(=O)NC(=O)C(CCc3ccncc3)(CCc3ccncc3)C2=O)c1 [CBK264898] | % | 96.3 |
| CNC(=O)c1nn(Cc2ccc(Cl)cc2)c2ccccc12 [CBK088451] | % | 87.6 |
| Cc1ccccc1N1C(=O)NC(=O)/C(=C/NCCCn2ccnc2)C1=O [CBK261829] | % | 107 |
| CCOC(=O)C1(c2ccccc2)CCN(CC(=O)Nc2ccc(C(=O)OC)cc2)CC1 [CBK020942] | % | 92.9 |
| COc1ccc(N2C(=O)NC(=O)/C(=C\c3ccc(O)c(O)c3)C2=O)cc1 [CBK261436] | % | 92 |
| Fc1ccc(OCCOc2ccccc2-c2ccc3c(c2)COC2(CCNCC2)O3)cc1 [CBK105745] | % | 88.7 |
| COc1ccc(CN2CCN(Cc3ccccc3)CC2)c(OC)c1 [CBK261553] | % | 115 |
| CCOc1ccc(N2C(=O)/C(=C/c3ccc(Br)cc3)C(=O)NC2=S)cc1 [CBK263305] | % | 92.7 |
| CNC(Cc1ccccc1)c1ccccc1OC (stereo not shown) [CBK011943C] | % | 88.6 |
| O=C(c1ccoc1)N1CCC2(CC1)OCc1ccccc1O2 [CBK061234] | % | 94.7 |
| CN(C)C(=O)c1ccc(Cn2nc(C(=O)NC3CC3)c3ccccc32)cc1 [CBK047720] | % | 93.1 |
| CCOC(=O)C1(c2ccccc2)CCN(C(=O)CC2NC(=O)NC2=O)CC1 (stereo not shown) [CBK132196] | % | 93.7 |
| O=c1[nH]c(=S)[nH]c(O)c1CN1CCOCC1 [CBK262493] | % | 98.7 |
| COc1ccc(CCNCc2ccc3c(c2)OCO3)cc1 [CBK074488] | % | 95.7 |
| Cc1noc(C)c1NC(=O)N1CCC2(CC1)OCc1cc(F)ccc1O2 [CBK060721] | % | 97.8 |
| Fc1cc(F)cc(-c2ccc3c(c2)COC2(CCNCC2)O3)c1 [CBK060915] | % | 87.7 |
